Sourced from patent US20230192890A1

study-system: T1, Ala mutant SEQ ID NO: 35 (human)
T1 peptide: EENMDDQWAQDEMEIGY
protocol-details: ELISA, peptide on plate (10 ug/mL)
property-name: absorbance 490 nm/630 nm (OD)
Express the result in OD but write the number alone.

G6 (antibody, IgG1, V domains shown, Chicken variable regions in mouse chimeric antibody (IgG1) expression vectors; also called anti-PAD4 antibody G6; A11 etc) VH: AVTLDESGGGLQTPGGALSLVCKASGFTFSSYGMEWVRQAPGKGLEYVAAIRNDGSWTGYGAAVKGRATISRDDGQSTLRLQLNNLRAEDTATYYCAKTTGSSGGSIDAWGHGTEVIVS VL: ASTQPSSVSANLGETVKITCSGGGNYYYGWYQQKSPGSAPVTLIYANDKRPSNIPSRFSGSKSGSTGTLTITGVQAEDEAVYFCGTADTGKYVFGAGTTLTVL: 0.015

**Query** Return reported absorbance 490 nm/630 nm; argument: G9 (antibody, IgG1, V domains shown, Chicken variable regions in mouse chimeric antibody (IgG1) expression vectors; also called anti-PAD4 antibody G9; A11 etc) VH: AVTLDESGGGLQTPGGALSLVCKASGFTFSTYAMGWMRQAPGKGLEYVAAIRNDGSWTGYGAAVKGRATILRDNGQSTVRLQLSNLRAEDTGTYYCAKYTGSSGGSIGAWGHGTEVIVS VL: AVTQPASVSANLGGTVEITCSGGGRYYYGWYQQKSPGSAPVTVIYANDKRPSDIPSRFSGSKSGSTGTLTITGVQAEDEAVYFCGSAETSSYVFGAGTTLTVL
**Result** 0.253
